Attribution: PubChem BioAssay

biological target: Voltage-gated potassium channel subunit beta-2 (Rattus norvegicus); experiment: inhibitors of rat Kvbeta2 reductase activity – biochemical, NADPH fluorescence, primary screen (AID 622); conditions: recombinant KvBeta, 4-cyanobenzaldehyde reduction, at 10 µM, hits give high values;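 note: slope of raw intensity against log time taken from 70 to 1610 s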
Classes based on fluorescence slope: low band: < -0.5; middle band: ≥ -0.5 and < -0.4; high band: ≥ -0.4

See these solved cases before continuing.
- molecule: "Cn1c(C(=O)NCCCN2CCN(c3ccc(F)cc3)CC2)cc2c(=O)n(C)c3ccccc3c21"
  assayedSystem: "Voltage-gated potassium channel subunit beta-2 (Rattus norvegicus)"
  group: "middle band"
- molecule: "CN(C)C(CNc1nnnn1-c1ccccc1)c1ccco1 (stereo not given)"
  assayedSystem: "Voltage-gated potassium channel subunit beta-2 (Rattus norvegicus)"
  group: "low band"
- molecule: "COc1cccc(C2=NOC(C(=O)Nc3cc(C)nn3-c3ccccc3)C2)c1OC (stereo not given)"
  assayedSystem: "Voltage-gated potassium channel subunit beta-2 (Rattus norvegicus)"
  group: "low band"
- molecule: "O=c1c2c3c(sc2n2cnnc2n1CCc1ccccc1)CCCC3"
  assayedSystem: "Voltage-gated potassium channel subunit beta-2 (Rattus norvegicus)"
  group: "low band"
- molecule: "O=C1c2ccccc2C(Nc2ccc(F)cc2F)N1CCN1CCOCC1 (stereo not given)"
  assayedSystem: "Voltage-gated potassium channel subunit beta-2 (Rattus norvegicus)"
  group: "middle band"
- molecule: "O=C(NCc1ccc2c(c1)OCO2)c1ccc(NS(=O)(=O)c2ccc3c(c2)OCCO3)cc1"
  assayedSystem: "Voltage-gated potassium channel subunit beta-2 (Rattus norvegicus)"
  group: "low band"
- molecule: "CCOC(=O)Cc1csc(NC(=O)CSc2nnc(C(C)C)n2CC)n1"
  assayedSystem: "Voltage-gated potassium channel subunit beta-2 (Rattus norvegicus)"
  group: "high band"
- molecule: "Cc1c(C(=O)Nc2nnc(C(F)(F)F)s2)oc2ccccc12"
  assayedSystem: "Voltage-gated potassium channel subunit beta-2 (Rattus norvegicus)"
  group: "middle band"
- molecule: "Cc1ccc(CNC(=O)C2CC(=O)OC23CCCC3)c(C)c1 (stereo not given)"
  assayedSystem: "Voltage-gated potassium channel subunit beta-2 (Rattus norvegicus)"
  group: "low band"
- molecule: "COc1ccc(CCNC(=O)CC2COc3ccccc3O2)cc1OC (stereo not given)"
  assayedSystem: "Voltage-gated potassium channel subunit beta-2 (Rattus norvegicus)"
  group: "low band"

Q: Which class holds "CN1CCN(S(=O)(=O)c2ccc(Sc3nnc(-c4cccs4)n3-c3ccccc3)nc2)CC1" ?
Result: high band

Q: Ok, now "O=C(O)CCCCCNc1nc(=S)[nH]c2ccccc12"
Result: high band

Q: Ok, now "CN(C)c1nc(Oc2ccc(N)cc2)nc(N(C)C)n1"
Result: high band

Q: Ok, now "Cn1c(=O)cc(SCC(=O)NCc2cccnc2)c2ccccc21"
Result: high band
